test system: HOP-92; test: NCI tumour cell line growth inhibition, 48 h
Activity calls are given as the source filed them. Cut-off read from the data, not from the text of the source: active = GI50 up to about 1.1 µM and inactive = higher.
Select the matching outcome among active, inactive

Check out these entries, answers already filled in.
compound	cat
Cc1c(O)c(OC2OC(CO)C(O)C(O)C2O)cc2c1CC[C@@H]1C2(C)C(=O)C[C@]2(C)[C@@H]([C@@](C)(O)C3CCC(C)(C)O3)[C@H](O)C[C@@]12C (some centres not stated)	inactive
Cc1c(C(=O)/C=C/c2ccccc2O)c(=O)n(-c2ccccc2)n1C	inactive

Please state the recorded outcome for this compound: C=CCN1C[C@H](C)N([C@H](c2ccc(C(=O)NC(CC)CC)cc2)c2cccc(OC)c2)C[C@H]1C
inactive

Also need Cc1cc(-c2ccc(C(=O)O)[nH]2)on1 , thanks.
inactive

What do we get for CCN(CC)C(=S)SS(C)(=O)=O ?
inactive

Please answer likewise for O=C1NC(N2CCOCC2)=N/C1=C\c1ccccc1
inactive

Same thing, different compound: CCCNC(=O)c1cc2ccccc2cc1C(=O)OC
inactive

What about Cc1cc(-c2nc3cc(F)c(F)cc3s2)ccc1N ?
inactive

What about O=C1Nc2ccc(S(=O)(=O)NCCO)cc2/C1=C1/Nc2ccccc2C1=O ?
inactive

Repeat with Cc1ncc(CCl)c2c1OC(C)(C)OC2
inactive

Can you check COc1ccc(C(=O)c2c(C(C(=O)c3ccc(OC)cc3)C(=O)c3ccc(OC)cc3)n(C(=O)c3ccc(OC)cc3)c3ccccc23)cc1 next?
inactive

Here is the next compound: O=C(N/C(=C\c1ccc(/C=C(\NC(=O)c2ccccc2)c2nc3cc(Cl)ccc3[nH]2)cc1)c1nc2cc(Cl)ccc2[nH]1)c1ccccc1
inactive

Entry to check: COc1ccc(/C(=N\NC(=O)NN)C(c2ccc(OC)cc2)C2(O)C(=O)Nc3c(Cl)cc(Cl)cc32)cc1 (configuration not stated)
inactive

Please do the same for O=C(O)c1c(-c2cccc3ccccc23)sc(-c2cccc3ccccc23)c1C(=O)O as well.
inactive

Next compound: O=C(Cc1ccccc1)Nn1c(-c2ccccc2)nc2ccccc2c1=O
inactive

---

tested on: DU-145; test: NCI tumour cell line growth inhibition, 48 h
Active and inactive are the calls of the source. Cut-off read from the data, not from the text of the source: active = GI50 up to about 1.1 µM and inactive = higher.
In this exercise, the only acceptable responses are 1 (yes) (active), 0 (no) (inactive)

Take a look at these entries with their results.
compound	target.desc	cat
CCC1C2Cc3ccc(O)cc3C1(CC)CCN2C (stereo not given)	DU-145	0 (no)
C=C(C)C(=O)O[C@@H]1C/C(C)=C\[C@H](OC(C)=O)C[C@](C)(O)/C=C2/OC(=O)C(COC(C)=O)=C21	DU-145	0 (no)
CC(=O)CCC[C@H](C)[C@@H](O)[C@@H]1O[C@H]([C@@]2(C)CCC(=O)O2)C[C@H]1C(=O)O	DU-145	0 (no)
O=C1/C(=C\c2cccc(Oc3ccccc3)c2)S(=O)(=O)C(c2ccccc2)N1c1ccc(Cl)cc1 (stereo not given)	DU-145	0 (no)
CC(=O)OCc1cc2c(s1)C(=O)c1sccc1C2=O	DU-145	1 (yes)
CCOC(=O)Nc1cc2c(c(N)n1)N=C(c1ccc(Cl)cc1Cl)CN2	DU-145	1 (yes)
Cc1c(O)c(OC2OC(CO)C(O)C(O)C2O)cc2c1CC[C@@H]1C2(C)C(=O)C[C@]2(C)[C@@H]([C@@](C)(O)C3CCC(C)(C)O3)[C@H](O)C[C@@]12C (stereo not given in full)	DU-145	0 (no)
c1ccc2c(c1)SCCC2NC1=NCCO1 (stereo not given)	DU-145	0 (no)

Identify the outcome logged in this assay for the compound shown: COc1ccc(C2=NNC(c3cc4cc(Br)ccc4nc3Cl)C2)cc1 (stereo not given)
0 (no)

What do you get for O=C1c2cc(I)ccc2N2CCN=C2N1Cc1ccccc1 ?
0 (no)

Request: N=C(c1ccc(-c2cn3cc(C(=N)N4CCCC4)ccc3n2)cc1)N1CCCC1
0 (no)

Also C[N+](C)(C)CC(=O)N/N=C(/CC1OC(=O)c2ccccc21)c1ccccc1O (stereo not given) ?
0 (no)

Note, next up: O=C1C(c2c(O)[nH]c3ccccc23)=Nc2ccc(Br)cc21
0 (no)
